# System: Vero E6 infected with SARS-CoV-2
# procedure text: morphology score (similarity to uninfected cells); higher = more like uninfected cells
# condition: 24 h
measured metric: morphology score

compound	morphology score
CS(=O)(=O)CCNCc1ccc(-c2ccc3ncnc(Nc4ccc(OCc5cccc(F)c5)c(Cl)c4)c3c2)o1 [lapatinib] (10 µM)	-0.279
N[C@@H](CC(=O)Nc1ccc(Oc2cc(F)c(F)cc2Br)cc1)C(=O)O (10 µM)	0.233
CCCC[C@H](NC(C)=O)C(=O)N[C@H]1CC(=O)NCCCC[C@@H](C(=O)O)NC(=O)[C@H](Cc2c[nH]c3ccccc23)NC(=O)[C@H](CCCNC(=N)N)NC(=O)[C@@H](Cc2ccccc2)NC(=O)[C@H](Cc2c[nH]cn2)NC1=O [bremelanotide] (10 µM)	0.067
COc1ccc(/C=C/C(=O)Nc2ccccc2C(=O)O)cc1OC [tranilast] (10 µM)	0.0917
CCCCCCCCCCCCCCCC[N+](C)(C)CCN(Cc1ccc(OC)cc1)c1ncccn1 [thonzonium] (10 µM)	-0.372
COc1c(C)cnc(Cn2cc(C#CCC(C)(C)O)c3c(Cl)nc(N)nc32)c1C (10 µM)	0.181

Now for a further compound.
Query: Return reported morphology score; argument: Cc1cccc(-c2[nH]c(C(C)(C)C)nc2-c2ccc3nccnc3c2)n1 (10 µM)
Result: -0.0319
